Data origin, for the record: ChEMBL document CHEMBL1146975

System: Jurkat
METHOD_SUMMARY: Cytotoxicity against human Jurkat T cells
Assay type: functional, cell-based
ATTRIBUTE_MEASURED: log10(EC50) (log10 of the value in µM)

>  <MOLECULE>
CN1C(=O)C(Cc2ccc(-c3ccc(C(=O)O)cc3)cc2)NC(=O)c2cc(Cl)ccc21 (stereo not given)

>  <log10(EC50)>
1.18

$$$$
>  <MOLECULE>
CN1C(=O)C(Cc2ccc(-c3ccccc3)cc2)NC(=O)c2cc(Cl)ccc21 (stereo not given)

>  <log10(EC50)>
0.36

$$$$
>  <MOLECULE>
CN1C(=O)C(Cc2ccc(-c3ccc(O)cc3)cc2)NC(=O)c2cc(Cl)ccc21 (stereo not given)

>  <log10(EC50)>
0.18

$$$$
>  <MOLECULE>
CN1C(=O)C(Cc2ccc(-c3cccnc3)cc2)NC(=O)c2cc(Cl)ccc21 (stereo not given)

>  <log10(EC50)>
-0.22

$$$$
>  <MOLECULE>
CN1C(=O)C(Cc2c[nH]c3ccccc23)NC(=O)c2cc(Cl)ccc21 (stereo not given)

>  <log10(EC50)>
1.42

$$$$
>  <MOLECULE>
Cc1cccc(-c2ccc(CC3NC(=O)c4cc(Cl)ccc4N(C)C3=O)cc2)c1 (stereo not given)

>  <log10(EC50)>
0.49

$$$$
>  <MOLECULE>
CN1C(=O)C(Cc2ccc(-c3ccccc3Cl)cc2)NC(=O)c2cc(Cl)ccc21 (stereo not given)

>  <log10(EC50)>
0.92

$$$$
>  <MOLECULE>
CN1C(=O)C(Cc2ccc(-c3ccc(Cl)cc3)cc2)NC(=O)c2cc(Cl)ccc21 (stereo not given)

>  <log10(EC50)>
0.81

$$$$
>  <MOLECULE>
CN1C(=O)C(Cc2ccc(-c3ccncc3)cc2)NC(=O)c2cc(Cl)ccc21 (stereo not given)

>  <log10(EC50)>
-0.30

$$$$
>  <MOLECULE>
CN1C(=O)C(Cc2ccc(-c3cccc(C(F)(F)F)c3)cc2)NC(=O)c2cc(Cl)ccc21 (stereo not given)

>  <log10(EC50)>
0.65

$$$$
>  <MOLECULE>
CN1C(=O)C(Cc2ccc(/C=C/c3ccccc3)cc2)NC(=O)c2cc(Cl)ccc21 (stereo not given)

>  <log10(EC50)>
0.88

$$$$
>  <MOLECULE>
CN1C(=O)C(Cc2ccccc2Cc2ccccc2)NC(=O)c2cc(Cl)ccc21 (stereo not given)

>  <log10(EC50)>
1.25

$$$$
>  <MOLECULE>
CN1C(=O)C(Cc2ccc(-c3cccc(Br)c3)cc2)NC(=O)c2cc(Cl)ccc21 (stereo not given)

>  <log10(EC50)>
0.68

$$$$
>  <MOLECULE>
CN1C(=O)C(Cc2ccc(-c3cccc(Cl)c3)cc2)NC(=O)c2cc(Cl)ccc21 (stereo not given)

>  <log10(EC50)>
0.30

$$$$
>  <MOLECULE>
CN1C(=O)C(Cc2cccc(-c3ccccc3)c2)NC(=O)c2cc(Cl)ccc21 (stereo not given)

>  <log10(EC50)>
0.73

$$$$
>  <MOLECULE>
CN1C(=O)C(Cc2ccc(-c3ccc(C(F)(F)F)cc3)cc2)NC(=O)c2cc(Cl)ccc21 (stereo not given)

>  <log10(EC50)>
0.72

$$$$
